Cited source: ChEMBL document CHEMBL1137927

# assayTarget: Lysophosphatidic acid receptor 1 (Homo sapiens, UniProt Q92633)
# Sequence (Q92633 whole entry): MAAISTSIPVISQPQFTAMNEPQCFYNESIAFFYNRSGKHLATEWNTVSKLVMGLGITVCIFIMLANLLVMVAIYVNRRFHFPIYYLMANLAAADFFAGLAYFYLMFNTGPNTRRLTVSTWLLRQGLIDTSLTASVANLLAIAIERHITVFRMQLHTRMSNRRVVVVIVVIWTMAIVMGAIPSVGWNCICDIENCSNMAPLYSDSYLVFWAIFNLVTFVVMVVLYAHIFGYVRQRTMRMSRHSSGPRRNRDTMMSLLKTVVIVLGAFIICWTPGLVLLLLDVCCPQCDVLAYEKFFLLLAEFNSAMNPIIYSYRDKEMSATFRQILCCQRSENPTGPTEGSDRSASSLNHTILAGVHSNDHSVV
# procedureDetails: In vitro ability to antagonize LPA-evoked [35S]GTP-gamma-S binding to lysophosphatidic acid receptor 1 in HEK293T cell lines
# Type: functional, cell-based, HEK-293T
pIC50: −log10 of the molar value.
property: pIC50

{"molecule": "CCCCCCCC/C=C\\CCCCCCCC(=O)N[C@@H](COP(=O)(O)O)Cc1ccc(OCCC(C)C)cc1", "endpointValue": "< 5.00"}
{"molecule": "C#CCCCCOc1ccc(C[C@H](COP(=O)(O)O)NC(=O)CCCCCCC/C=C\\CCCCCCCC)cc1", "endpointValue": "< 5.00"}
{"molecule": "CCCCCCCC/C=C\\CCCCCCCC(=O)N[C@H](COP(=O)(O)O)Cc1ccc(OCCC(C)C)cc1", "endpointValue": "< 5.00"}
{"molecule": "CCCCCCCC/C=C\\CCCCCCCC(=O)N[C@@H](COP(=O)(O)O)Cc1ccc(OC2Cc3ccccc3C2)cc1", "endpointValue": 5.53}
{"molecule": "CCCCCCCC/C=C\\CCCCCCCC(=O)N[C@H](COP(=O)(O)O)Cc1ccc(OCc2cccc(OC)c2)cc1", "endpointValue": 5.25}
{"molecule": "CCCCCCCCCCCCCCCCCC(=O)N[C@@H](COP(=O)(O)O)Cc1ccc(OC2O[C@H](CO)[C@@H](O)[C@H](O)[C@H]2O)cc1 (stereo partly drawn)", "endpointValue": "< 5.00"}
{"molecule": "CCCCCCCC/C=C\\CCCCCCCC(=O)N[C@H](COP(=O)(O)O)Cc1ccc(OCC)cc1", "endpointValue": "< 5.00"}
{"molecule": "CCCCC/C=C\\C/C=C\\CCCCCCCC(=O)NC(COP(=O)(O)O)Cc1ccc(OCc2ccccc2)cc1 (stereo not drawn)", "endpointValue": 5.37}
